Below, each entry is listed with its recorded GI50.
Test system: CCRF-CEM leukemia
Assay: NCI tumour cell line growth inhibition, 48 h

// worked examples, GI50 included
- compound_structure: "O=C(/C=C\\Sc1ccccn1)c1cccc(Br)c1"
  tested_on: "CCRF-CEM leukemia"
  GI50: "3000 nM"
- compound_structure: "Cc1ccc2cc3c(cc(C)c4ccccc43)c3c2c1CC3"
  tested_on: "CCRF-CEM leukemia"
  GI50: "> 100000 nM"

Please examine the following record next.
// query GET /values?readout=GI50&item= COC(=O)C1=C(C(=O)OC)SC(=C(Cl)C(=S)Oc2ccccc2N)S1
// result > 50000 nM

* * *

Measured TGI values are reported for all entries that follow.
System: CCRF-CEM leukemia
Experiment: NCI tumour cell line growth inhibition, 48 h
Where a SMILES comes first, the peptide text is derived from it. The star is where a group is joined. Boc = CC(C)(C)OC(=O)*

// query Query (molecule): OCCCCOC(c1ccccc1)(c1ccccc1)c1ccccc1 ; field requested: TGI
// result > 100 µM

// query Look up TGI: CC(C)(C)OC(=O)NC(Cc1ccccc1)C(=O)N1CCCC1C(N)=O (stereo not drawn) (Boc-Phe-Pro-NH2; configuration not given here)
// result > 100 µM

// query Any idea what its TGI is? The molecule is C[C@]12CCC(=O)C[C@H]1CCC(O)[C@@H]2Br (some centres undefined)
// result > 100 µM

// query Would you mind telling me what TGI value was observed for CCOC(=O)C(Br)(C(N)=O)C1(O)OC(c2ccccc2)=C(Br)C1=O (centres undefined) ?
// result 10.2 µM

// query Entry under review: O=C1C(Br)=C(C2=CC(=P(c3ccccc3)(c3ccccc3)c3ccccc3)C=C2)C(=O)C(Br)=C1C1=CC(=P(c2ccccc2)(c2ccccc2)c2ccccc2)C=C1 . Reported TGI?
// result > 100 µM

// query I have this molecule here, COc1cc(-c2nn(-c3ccc(NC(=O)NCCNS(=O)(=O)c4ccc(F)cc4)cc3)cc2-c2ccncc2)ccc1Cl , and I need its recorded TGI.
// result > 100 µM

// query Need TGI, item Cc1nc2ccc(Cl)cc2c(Cl)c1CCCl
// result > 100 µM

// query Please report the recorded TGI for COc1ccc(-c2nc(N3CCCC3)no2)cc1 .
// result > 71.5 µM

// query Report TGI for O=C1CSC(c2cccc(Cl)c2)N1c1ccc(-n2c(-c3ccccc3)nc3ccccc3c2=O)cc1 (centres undefined) please.
// result > 100 µM

* * *

As shown below, each of these compounds has a reported TGI value.
Test system: U251 CNS
Experiment: NCI tumour cell line growth inhibition, 48 h

Illustrative cases are given below, each with its answer.
- compound_structure: "O=C1NC(N/N=C/c2cccs2)=N/C1=C\\c1ccco1"
  TGI: "> 100 µM"
- compound_structure: "COc1ccc(/C=c2/s/c(=C(\\C#N)c3nc4ccccc4[nH]3)n(-c3ccccc3)c2=O)cc1"
  TGI: "> 100 µM"
- compound_structure: "O=C1OC(c2ccccc2)=N/C1=C\\c1ccc(Br)cc1"
  TGI: "> 100 µM"

// query Lookup: TGI / U251 CNS / O=C1CCC/C=C\C[C@H]2C=CC(=O)/C2=C/C[C@H](CCc2cccc(C(F)(F)F)c2)O1
// result 2.85 µM

// query Query TGI on U251 CNS for COc1ccc(/C=C/c2cc(OC)c(OC)c(OC)c2)cc1O[Si](C)(C)C(C)(C)C
// result 26.6 µM

* * *

Tested on: DMS 273 small cell lung
Test: NCI tumour cell line growth inhibition, 48 h
measured_property: TGI

// known answers, use as guide
- compound: "O=C(O)/C=C\\C(=O)c1ccc(Cl)cc1"
  TGI: "> 31.6 µM"
- compound: "Cn1cc/c(=N\\N=c2/ccn(C)c3ccccc23)c2ccccc21"
  TGI: "30 µM"
- compound: "O=C(CC1(O)C(=O)Nc2ccccc21)c1ccc2ccccc2c1 (centres undefined)"
  TGI: "> 100 µM"

Switching to the query record.
// query Param readout= TGI; system= DMS 273 small cell lung; entry= CCC1=C(CC)C1(C#N)[N+](=O)[O-] ; returns value.
// result > 100 µM

* * *

Test system: MDA-MB-435
Assay: NCI tumour cell line growth inhibition, 48 h
Classify by measured TGI: yes if it is equal to or exceeds 30 µM, no if it is smaller.

Example results:
- compound: "CCOC(=O)C(=Cc1ccccc1Cl)C(=O)OCC"
  qualitative_label: "no"
- compound: "Cn1c(-c2cccc(N)c2)[n+](C)c2ccccc21"
  qualitative_label: "yes"
- compound: "NC(=O)c1c(Br)n(C2OC(CO)C(O)C2O)c2ncnc(N)c12 (configuration not stated)"
  qualitative_label: "no"
- compound: "O=C(Cc1ccccc1CCO)NCCc1ccccc1"
  qualitative_label: "yes"
- compound: "COc1cccc(/C=C2\\COc3ccc(O)c(O)c3C2=O)c1"
  qualitative_label: "no"

// query Is reported TGI greater than or equal to 30 µM here: COc1cc(/C=C2\CCC/C(=C\c3ccc(OC(=O)CCCCC4CCSS4)c(OC)c3)C2=O)ccc1OC(=O)CCCCC1CCSS1 (configuration not stated)
// result yes

// query Quick check: does CC1(C)[C@@H]2CC[C@@]1(C)C1(SS1=O)C21Cc2ccccc2C1 (some centres not stated) have TGI greater than or equal to 30 µM?
// result yes

// query Quick check: does CC1=NN(c2cccc(Cl)c2)C2(C1=Cc1ccccc1)C(Cl)C(=O)N2c1nc2ccccc2s1 (configuration not stated) have TGI greater than or equal to 30 µM?
// result yes

// query Please tell me: is the compound O=C(O)CNCP(=O)(O)O at or over 30 µM in terms of TGI?
// result yes

* * *

// reported TGI for each item listed
Test system: NCI-H23 lung
Test: NCI tumour cell line growth inhibition, 48 h

Study these solved cases before continuing.
- compound: "O=C1CCC/C=C\\C[C@H]2C=CC(=O)/C2=C/C[C@H](CCc2cccc(C(F)(F)F)c2)O1"
  TGI: "5.89 µM"
- compound: "O=C1CSC(c2cccc(Cl)c2)N1c1ccc(-n2c(-c3ccccc3)nc3ccccc3c2=O)cc1 (stereo not given)"
  TGI: "> 100 µM"
- compound: "O=C(OCCO)C1CC2CC1C1(C2)OCCO1 (stereo not given)"
  TGI: "> 100 µM"

// query TGI lookup needed for c1ccc(C2N=NN(c3ccccc3)C2N2CCCCC2)cc1 (stereo not given) , thanks.
// result > 100 µM

// query Please give the measured TGI for this compound: CCOC(=O)C(C)c1nc2cc3cccnc3c(Cl)c2[nH]c1=O (stereo not given)
// result > 100 µM

* * *

Listed below: TGI values for each entry.
Tested on: HCT-15 colon
Experiment: NCI tumour cell line growth inhibition, 48 h

- compound: "CCn1nc(-c2ccc(C(=O)OC)cc2)nc2c(=O)n(C)c(=O)nc1-2"
  TGI: "1.61 µM"
- compound: "C=CCN(N=O)C(=O)NCCCC(NC(C)=O)C(=O)NCc1ccccc1 (stereo not drawn)"
  TGI: "> 100 µM"

// query What is its TGI for HCT-15 colon? Entry: O=C(NC1CCCCC1)OCc1c(COC(=O)NC2CCCCC2)c(-c2ccc(Cl)c(Cl)c2)n2c1CCC2
// result 43.2 µM

// query Under HCT-15 colon: TGI value of Nc1nc2ccc(NCc3ccc(C(=O)NC(CCC(=O)O)C(=O)O)cc3)cc2c(=O)[nH]1 (stereo not drawn) ?
// result > 100 µM

// query Notebook: pull reported TGI for HCT-15 colon, entry Nc1ccc(C(=O)N/C(=C\C=C\c2ccco2)c2nc3c4c(ccc3[nH]2)C(=O)c2ccccc2C4=O)cc1
// result > 100 µM

* * *

Test system: RPMI-8226 leukemia
Test: NCI tumour cell line growth inhibition, 48 h
# TGI per entry
The reply should contain only the number, in µM.

- molecule: "CCOC(=O)C(Br)(C(N)=O)C1(O)OC(c2ccccc2)=C(Br)C1=O (stereo not given)"
  tested_on: "RPMI-8226 leukemia"
  TGI / µM: 27.7
- molecule: "CN1C[C@@H](c2ccc(Cl)cc2)[C@]2(NC(=S)N(c3ccc(F)c(Cl)c3)C2=O)[C@@]12C(=O)NC1C=CC(Cl)=C[C@H]12 (stereo not given in full)"
  tested_on: "RPMI-8226 leukemia"
  TGI / µM: 7.06

// query Reported TGI for CCN(CC)CCNC(=O)c1cc2cc(NC(=O)c3cc4cc(N)ccc4[nH]3)ccc2[nH]1 : what is it?
// result 74.5

* * *

TGI values, listed per item
System: SR leukemia
Experiment: NCI tumour cell line growth inhibition, 48 h

- compound: "[N-]=[N+]=NCC1OC(n2cnc3c(N)ncnc32)C2OC12 (stereo not drawn)"
  tested_on: "SR leukemia"
  TGI: "> 100 µM"
- compound: "Cn1c(-c2cccc(N)c2)[n+](C)c2ccccc21"
  tested_on: "SR leukemia"
  TGI: "> 100 µM"
- compound: "COc1cc2c(cc1O)CC[C@@H]1[C@@H]2CC[C@]2(C)[C@@H](OCCCN(C)C)CC[C@@H]12"
  tested_on: "SR leukemia"
  TGI: "0.39 µM"
- compound: "CC(C)C[C@@H](NC(=O)[C@@H](Cc1cccc2ccccc12)NC(=O)N1CCOCC1)B(O)O"
  tested_on: "SR leukemia"
  TGI: "> 100 µM"

// query Can you share its TGI? I mean this compound: OCCCCOC(c1ccccc1)(c1ccccc1)c1ccccc1
// result > 100 µM

// query So what's the measured TGI for this one? COc1ccc(C(=O)c2cc(OC)c(OC)c(OC)c2)cc1OC(=O)C(Cl)(Cl)Cl
// result > 100 µM

// query Which measured TGI value corresponds to Cn1cc/c(=N\N=c2/ccn(C)c3ccccc23)c2ccccc21 ?
// result 47.3 µM

// query Quick one: TGI for COc1ccc2c(c1)N=C(N)n1c(nc3ccccc31)S2 ?
// result > 100 µM

// query Consider the compound COC(=O)Cc1c(-c2[nH]c3ccccc3c2CC(=O)OC)[nH]c2ccccc12 and give its measured TGI.
// result > 100 µM

// query Find the recorded TGI belonging to CCN(CC)CC1CCCCN1CC(=O)N1c2ccccc2NC(=O)c2ccccc21 (stereo not drawn) and report it.
// result > 100 µM

// query I have this compound here, CC(C)C[C@@H](NC(=O)[C@@H](Cc1ccccc1)NC(=O)c1cnccn1)B1Oc2ccc(C[C@H](NC(=O)[C@H](Cc3ccc4c(c3)OB([C@@H](CC(C)C)NC(=O)[C@@H](Cc3ccccc3)NC(=O)c3cnccn3)O4)NC(=O)[C@@H](N)CC3CCC4OB([C@@H](CC(C)C)NC(=O)[C@@H](CC5CCCCC5)NC(=O)C5CNCCN5)OC4C3)C(=O)NCCCC[C@@H]3NC(=O)[C@@H](Cc4ccccc4)NC(=O)[C@H](CC(=O)O)NC(=O)CNC(=O)[C@H](CCCNC(=N)N)NC3=O)cc2O1 (stereo partly drawn) , and I need its recorded TGI.
// result 0.244 µM

// query # lookup: TGI of CCOC(=O)C(C)c1nc2cc(N3CCOCC3)c(F)cc2[nH]c1=O (stereo not drawn)
// result > 100 µM

// query TGI value for entry Cc1ccc(C(=O)CC(O)(C(F)(F)F)C(F)(F)F)cc1[N+](=O)[O-]
// result 14.3 µM
